Tested on: Streptococcus pyogenes
Test: mouse protection, experimentally-induced infection
Format: in vivo
Conditions: mice infected with Streptococcus pyogenes, two doses
Item-by-item account of ED50
propertyName: ED50 (mg/kg/2)

INSERT INTO measurements (compound, propertyname, readoutqualifier, testresult) VALUES
  ('CNC(CC(C)C)C(=O)NC1C(=O)NC(CC(N)=O)C(=O)NC2C(=O)NC3C(=O)NC(C(=O)NC(C(=O)O)c4cc(O)cc(O)c4-c4cc3ccc4O)C(OC3CC(C)(N)C(O)C(C)O3)c3ccc(c(Cl)c3)Oc3cc2cc(c3OC2OC(CO)C(O)C(O)C2OC2CC(C)(NCc3ccc(Oc4ccccc4)cc3)C(O)C(C)O2)Oc2ccc(cc2Cl)C1O (stereo not drawn) [Compound 4, p-phenoxybenzyl·A82846B]', 'ED50', '=', 0.012),
  ('CNC(CC(C)C)C(=O)NC1C(=O)NC(CC(N)=O)C(=O)NC2C(=O)NC3C(=O)NC(C(=O)NC(C(=O)O)c4cc(O)cc(O)c4-c4cc3ccc4O)C(OC3CC(C)(N)C(O)C(C)O3)c3ccc(c(Cl)c3)Oc3cc2cc(c3OC2OC(CO)C(O)C(O)C2OC2CC(C)(NCc3ccc(-c4ccc(F)cc4)cc3)C(O)C(C)O2)Oc2ccc(cc2Cl)C1O (stereo not drawn) [Compound 211]', 'ED50', '<', 0.031),
  ('CNC(CC(C)C)C(=O)NC1C(=O)NC(CC(N)=O)C(=O)NC2C(=O)NC3C(=O)NC(C(=O)NC(C(=O)O)c4cc(O)cc(O)c4-c4cc3ccc4O)C(OC3CC(C)(N)C(O)C(C)O3)c3ccc(c(Cl)c3)Oc3cc2cc(c3OC2OC(CO)C(O)C(O)C2OC2CC(C)(NCc3ccc(OCc4ccccc4)cc3)C(O)C(C)O2)Oc2ccc(cc2Cl)C1O (stereo not drawn) [Compound 5]', 'ED50', '=', 0.039);
